Measured values drawn from PubChem BioAssay for this set.

experiment_notes: probe aInhba binding on compound microarray – biochemical, small-molecule microarray, 635/667 nm fluorescence, primary screen (AID 1148);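 further: score merges 667nm spot fluorescence with signal-to-noise for antibody binding to printed compounds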
condition_label: higher = more signal
The following molecules are shown together with reported composite z-score values.
Could you respond with only the numeric value?

Worked examples, 7 molecules total:
[
  {
    "molecule": "C[N+](C)(C)CCCC[C@@H]1NC(=O)[C@H]2C[C@@H](C(=O)NCCCCCCNC(=O)CS)[C@@H](c3ccc(O)cc3)N2C1=O",
    "composite z-score": -0.024
  },
  {
    "molecule": "COc1ccc([Si](C)(C)[C@@H]2[C@@H](CCO)O[C@]3(C(=O)N(Cc4cccc(N5CCOC5=O)c4)c4ccccc43)[C@H]2C)cc1",
    "composite z-score": 0.0569
  },
  {
    "molecule": "CCC(CC)C(O)C1C=CC2C(=O)N(c3ccccc3)C(=O)C2N1Nc1ccccc1 (stereo not drawn)",
    "composite z-score": 0.948
  },
  {
    "molecule": "C=C(CCCC)C(=O)CC[C@@H](OC(C)=O)c1ccc(CO)o1",
    "composite z-score": -0.154
  },
  {
    "molecule": "C#CCN1[C@H](/C=C/C2CC2)[C@H](Cc2ccccc2)OC(=O)[C@@H]1Cc1ccccc1",
    "composite z-score": -0.0675
  },
  {
    "molecule": "COC(=O)[C@@]1(Cc2ccccc2)[C@H]2c3cc(C(=O)N4CCCC4)n(Cc4ccc(O)c(OC)c4)c3C[C@H]2CN1C(=O)c1ccccc1",
    "composite z-score": 0.198
  },
  {
    "molecule": "O=C(O)C1N=C(c2ccc(OCCCO)cc2)N(c2ccccc2)O1 (stereo not drawn)",
    "composite z-score": -0.166
  }
]

Please find the next molecule below.
Using the record for "O=C1[C@H]2C=C(I)[C@H](C[C@@H]2OCCCCO)[C@@]12CO2" , report its composite z-score.
-0.025

====

target_or_system: Torsin-1A-interacting protein 2 (Homo sapiens) (UniProt Q8NFQ8)
Sequence (Q8NFQ8 whole entry, looked up): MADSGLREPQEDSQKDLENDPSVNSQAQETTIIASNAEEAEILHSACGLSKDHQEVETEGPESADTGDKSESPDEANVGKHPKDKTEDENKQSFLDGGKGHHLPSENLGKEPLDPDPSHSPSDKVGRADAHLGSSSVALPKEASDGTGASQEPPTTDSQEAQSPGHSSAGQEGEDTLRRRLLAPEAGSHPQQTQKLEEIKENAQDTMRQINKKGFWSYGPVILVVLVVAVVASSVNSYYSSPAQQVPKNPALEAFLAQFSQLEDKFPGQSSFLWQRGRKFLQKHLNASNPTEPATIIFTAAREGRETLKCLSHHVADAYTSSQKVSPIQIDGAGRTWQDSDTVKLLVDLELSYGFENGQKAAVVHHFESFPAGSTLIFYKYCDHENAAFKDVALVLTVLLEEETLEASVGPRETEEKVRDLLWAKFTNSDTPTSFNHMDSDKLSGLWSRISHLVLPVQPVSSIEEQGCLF
experiment_notes: small molecules binding lysate-expressed LULL1 – cell lysate, human LULL1 lysate, 635/667 nm fluorescence, primary screen (AID 1092);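 further: probe is lysate of COS7 cells overexpressing human LULL1; score merges per-feature 667 nm fluorescence with signal-to-noise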
condition_label: small-molecule microarray, hLULL1 lysate binding, 635 nm fluorescence; higher = more signal
The following molecules are shown together with reported composite z-score values.
Could you respond with only the numeric value?

Worked examples, 5 molecules total:
[
  {
    "molecule": "C=CC1c2cc(O)c(OC)cc2CCN1Cc1cccc(OC(F)(F)F)c1 (stereo not drawn)",
    "composite z-score": 3.88
  },
  {
    "molecule": "O=C1C2C=CC(C(O)c3ccc4c(c3)OCO4)N(Nc3ccc([N+](=O)[O-])cc3)C2C(=O)N1c1ccccc1 (stereo not drawn)",
    "composite z-score": 1.97
  },
  {
    "molecule": "CC=CC(O)C1C=CC2C(=O)N(C)C(=O)C2N1N(c1ccccc1)c1ccccc1 (stereo not drawn)",
    "composite z-score": -0.472
  },
  {
    "molecule": "O=C1C2C=CC(C(O)c3ccc(-c4ccccc4)s3)N(Nc3ccccc3)C2C(=O)N1c1ccccc1 (stereo not drawn)",
    "composite z-score": 4.34
  },
  {
    "molecule": "C=C(CCCC)C(=O)CC[C@@H](OC(C)=O)c1ccc(CO)o1",
    "composite z-score": -0.0891
  }
]

Using the record for "COCC(=C=CC[C@H](O)c1ccccc1OCCO)CCO" , report its composite z-score.
1.8

Using the record for "NCCCCCNC(=O)[C@H]1C[C@H]2C(=O)N[C@@H](Cc3ccccc3)C(=O)N2[C@H]1c1cccc(OCCO)c1" , report its composite z-score.
1.6

Using the record for "C#CCN(C/C=C/c1ccccc1)[C@H](CO)c1ccccc1" , report its composite z-score.
0.0638

====

The following compounds are shown together with reported z-score values.
experiment_notes: compound effects on differentiated 3T3-L1 adipocyte viability – cell-based, 3T3-L1 adipocytes, calcein-AM fluorescence, 48 h, basal, profiling panel (AID 1163); further: test concentration not given here
condition_label: 3T3-L1 adipocytes viability, higher = more signal

[
  {
    "compound": "CC(C)CCC[C@@H](C)[C@H]1CC[C@@]2(C)C3=C(CC[C@]12C)[C@@]1(C)CC[C@H](OC(=O)c2ccc(C(F)(F)F)nc2)C(C)(C)C1CC3 (some centres not stated)",
    "z-score": 0.806
  },
  {
    "compound": "COc1cc2c(cc1OC)CN(C(=O)[C@H]1[C@@H]3C(=O)O[C@@H](c4ccccc4)[C@@H](c4ccccc4)N3[C@@H](c3ccccc3OCCO)[C@]13C(=O)Nc1ccc(C#CCCO)cc13)CC2",
    "z-score": -0.538
  }
]

Using the record for "C#CCNCc1ccccc1" , report its z-score.
-0.0255

Using the record for "COc1ccc(C(=O)Nc2cccc(CN3C(=O)[C@]4(O[C@H](CCn5cc(CCO)nn5)[C@@H]([Si](C)(C)c5ccc(OC)cc5)[C@@H]4C)c4ccccc43)c2)cc1" , report its z-score.
-0.42

Using the record for "CO[C@H]1O[C@H](CO)[C@@H](OC(=O)Nc2ccc(Br)cc2)[C@@H]2OC(=O)[C@H](Cc3cccc(Br)c3)C/C=C/C[C@@H](Cc3cccc(Br)c3)C(=O)O[C@@H]12" , report its z-score.
0.461

Using the record for "COC(=O)c1c2oc(c1C(=O)OC)C(=O)N[C@@H](C(C)C)Cn1cc(nn1)C1(CCCCC1)NC(=O)N[C@H](CO)CC2" , report its z-score.
-0.32

Using the record for "C=CCN1C(=O)[C@]2(O[C@H](CCO)[C@@H]([Si](C)(C)c3ccc(OC)cc3)[C@@H]2C)c2cc(N(C=O)c3ccccc3)ccc21" , report its z-score.
0.532

====

experiment_notes: resazurin metabolic signal in A549 cells – cell-based, resazurin fluorescence, 24 h, PK04 Diversity Set, profiling panel (AID 1171); further: test concentration not given here
condition_label: A549 viability, higher = more signal, called active from +8 up or from −8 down
Active and inactive are the calls of the source.
The following compounds are shown together with reported z-score values.

[
  {
    "compound": "COCCCNC(=O)[C@]1(Cc2ccccc2)N=C(c2ccc(OCCCO)cc2)O[C@@H]1c1ccccc1CN=[N+]=[N-]",
    "z-score": "-1.43 (inactive)"
  }
]

Using the record for CC(c1ccccc1)C(O)C1C=CC2C(=O)N(c3ccccc3)C(=O)C2N1Nc1ccccc1 (centres undefined) , report its z-score.
-1.15 (inactive)

Using the record for "COCCCNC(=O)[C@@H]1c2ccccc2C(=O)N(Cc2ccccc2)[C@H]1c1ccc(CO)cc1" , report its z-score.
0.45 (inactive)

Using the record for "COc1ccc([Si](C)(C)[C@H]2[C@H](CCn3cc([C@H](O)c4ccccc4)nn3)O[C@@]3(C(=O)N(C)c4ccccc43)[C@@H]2C)cc1" , report its z-score.
0.32 (inactive)

Using the record for "COc1cc2c(cc1O)C=[N+](Cc1cc3c(cc1Br)OCO3)CC2" , report its z-score.
-0.698 (inactive)

Using the record for C[C@H]1C2[C@H](Cc3ccccc3)NC(=O)[C@]23C(=O)NCC(=O)N2CCC[C@H]2C(=O)NC/C=C/CCC/C=C/C3[C@@H]2O[C@]12C (some centres undefined) , report its z-score.
-1.46 (inactive)

Using the record for CCCCC(O)C1C=CC2C(=O)N(C)C(=O)C2N1N1CCCCC1 (centres undefined) , report its z-score.
-0.377 (inactive)

Using the record for "CCCC=C(CCC)[C@@H](NC(=O)OCC(C)C)c1ccccc1" , report its z-score.
0.292 (inactive)

Using the record for OB1C=CCC(CCc2ccccc2)O1 (centres undefined) , report its z-score.
-1.01 (inactive)

Using the record for "[N-]=[N+]=Nc1ccccc1C[C@]1(C(=O)NCc2ccccc2)N=C(c2ccc(OCCCO)cc2)O[C@H]1c1ccccc1N=[N+]=[N-]" , report its z-score.
-1.6 (inactive)

Using the record for "COc1ccc([Si](C)(C)[C@@H]2[C@@H](CCn3cc(CCO)nn3)O[C@]3(C(=O)N(Cc4cccc(N5C(=O)c6cccc7cccc5c67)c4)c4ccccc43)[C@H]2C)cc1" , report its z-score.
-3.53 (inactive)

Using the record for "CCCNC(=O)[C@@]1(Sc2ccc(C)cc2)CC(=O)N(Cc2ccccc2C(F)(F)F)[C@@H]1c1ccc(CO)cc1I" , report its z-score.
0.821 (inactive)

Using the record for "CCOC(=O)C[C@H]1[C@H](OC(=O)c2ccc(C(=O)c3ccccc3)cc2)[C@@H](NC(=O)Cc2ccc(OC)cc2)c2cc(OCCCO)ccc2N1C(=O)c1ccc2ccccc2n1" , report its z-score.
-0.383 (inactive)

Using the record for "COC(=O)c1c(CC[C@@H](CO)NC(=O)N[C@@H](Cc2ccccc2)Cn2cc(-c3ccccn3)nn2)oc(C(=O)N2CCOCC2)c1C(=O)OC" , report its z-score.
0.765 (inactive)

Using the record for CCCCCN1CC=CC23O[C@@H]4C=CCOC(=O)[C@@H]4[C@H]2C(=O)N(C(C)CO)[C@@H]3C1=O (some centres undefined) , report its z-score.
0.0264 (inactive)

Using the record for CCN(CC)c1ccc(N2CC=CC34O[C@@H]5C=CCOC(=O)[C@@H]5[C@H]3C(=O)N(CCCCCCO)[C@@H]4C2=O)cc1 (some centres undefined) , report its z-score.
1.37 (inactive)
